Each item that follows carries a reported Binding [relative units] (relative units).
Molecular target: human CD98hc ectodomain (recombinant) (human) (UniProt P08195)
Sequence (P08195 206-630): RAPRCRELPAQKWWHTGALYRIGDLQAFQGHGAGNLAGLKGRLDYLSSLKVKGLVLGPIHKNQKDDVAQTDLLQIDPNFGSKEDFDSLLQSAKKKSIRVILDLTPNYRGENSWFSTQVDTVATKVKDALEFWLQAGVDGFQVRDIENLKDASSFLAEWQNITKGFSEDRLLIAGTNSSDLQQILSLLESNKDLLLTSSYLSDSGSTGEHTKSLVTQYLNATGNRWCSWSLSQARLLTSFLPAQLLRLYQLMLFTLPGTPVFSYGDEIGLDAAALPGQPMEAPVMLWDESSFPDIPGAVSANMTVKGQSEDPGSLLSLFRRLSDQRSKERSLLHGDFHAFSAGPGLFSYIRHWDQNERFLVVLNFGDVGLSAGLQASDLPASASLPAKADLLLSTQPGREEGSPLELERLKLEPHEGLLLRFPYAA
Assay: ELISA, VNAR-hFc in Expi293 medium on coated ectodomain
The response must contain the number and no unit.

Reference set, count: 3
Binder: G6 VNAR-hFc fusion (Fc fusion, Bivalent VNAR-Fc, VNAR N-terminal to human IgG1 Fc; Expi293; not shown: human IgG1 Fc (hinge, CH2, CH3) of vector pFUSE-hIgG1e3-Fc2) ARVDQTPQTITKEEGESLTINCVLRVETRALASTSWYRKKSGSTREETISKGGRYVETVNSGSKSFSLRINDLTVEDSGTYRCNVYIRHYSEFTQAPFRDVYGDGTAVTVNA
Recorded result: 0.042
//
Binder: H6 VNAR-hFc fusion (Fc fusion, Bivalent VNAR-Fc, VNAR N-terminal to human IgG1 Fc; Expi293; not shown: human IgG1 Fc (hinge, CH2, CH3) of vector pFUSE-hIgG1e3-Fc2) ARVDQTPQTITKEEGESLTINCVLRTHSNALASTSWYRKKSGSTREETISKGGRYVETVNSGSKSFSLRINDLTVEDSGTYRCNVYAFLEIQPNIYHEFDVYGDGTAVTVNA
Recorded result: 3.31
//
Binder: G12 VNAR-hFc fusion (Fc fusion, Bivalent VNAR-Fc, VNAR N-terminal to human IgG1 Fc; Expi293; not shown: human IgG1 Fc (hinge, CH2, CH3) of vector pFUSE-hIgG1e3-Fc2) ARVDQTPQTITKETGESLTINCVLRDSNCALSSTYWYRKKSGSTNEALISKGGRYVETVNSGSKSFSLRINDLTVEDSGTYRCNVVQDLRDDCFFRDVYGGGTAVTVNA
Recorded result: 0.044

I'd like to know its Binding [relative units] (relative units). The binder in question is E12A VNAR-hFc fusion (Fc fusion, Bivalent VNAR-Fc, VNAR N-terminal to human IgG1 Fc; Expi293; not shown: human IgG1 Fc (hinge, CH2, CH3) of vector pFUSE-hIgG1e3-Fc2) ARVDQTPQTIAREEGESVTINCVVRDSNRALASTSWCSEKYVSTREESISKGGRYVETVNSGSKSFSLRINDLTVEDSGTYRCNVYFFPSFEVDVLQTNDVYGDGTAVTVNA
0.049
